subject-of-test: T1, His-tagged Sec6p (pET46-Sec6) (S. cerevisiae, UniProt P32844 1-805)
T1 sequence: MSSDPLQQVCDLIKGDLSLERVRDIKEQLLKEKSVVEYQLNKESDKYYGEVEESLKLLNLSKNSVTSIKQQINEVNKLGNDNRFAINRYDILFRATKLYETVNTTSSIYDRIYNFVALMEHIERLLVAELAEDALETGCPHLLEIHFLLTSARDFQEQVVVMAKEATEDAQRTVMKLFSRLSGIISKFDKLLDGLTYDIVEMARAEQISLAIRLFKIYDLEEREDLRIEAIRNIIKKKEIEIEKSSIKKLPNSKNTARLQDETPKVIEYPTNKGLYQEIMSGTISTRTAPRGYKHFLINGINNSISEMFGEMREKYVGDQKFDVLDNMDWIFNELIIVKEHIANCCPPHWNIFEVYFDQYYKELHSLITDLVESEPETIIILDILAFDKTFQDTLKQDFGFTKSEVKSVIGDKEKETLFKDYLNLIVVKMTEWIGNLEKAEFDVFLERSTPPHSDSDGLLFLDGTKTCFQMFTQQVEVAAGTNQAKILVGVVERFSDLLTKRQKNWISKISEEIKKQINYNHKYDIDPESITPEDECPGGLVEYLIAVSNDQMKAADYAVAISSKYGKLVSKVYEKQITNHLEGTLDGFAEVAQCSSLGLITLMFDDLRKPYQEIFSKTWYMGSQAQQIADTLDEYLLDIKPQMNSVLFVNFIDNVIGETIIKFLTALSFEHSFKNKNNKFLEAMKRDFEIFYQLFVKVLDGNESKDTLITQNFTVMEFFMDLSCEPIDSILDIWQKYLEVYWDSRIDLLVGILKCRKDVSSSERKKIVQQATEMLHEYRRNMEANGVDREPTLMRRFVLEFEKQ
method-description: pull-down
quantity-measured: binding result

[[record]]
binder = "GST-Snc2p R75A (domain or fragment) MSSSVPYDPYVPPEESNSGANPNSQNKTAALRQEIDDTVGIMRDNINKVAERGERLTSIEDKADNLAISAQGFKAGANRVRKQMWWKDLKMR"
quantity_measured = "binding result"
val = "binds"

[[record]]
binder = "GST-Snc2p K82A (domain or fragment) MSSSVPYDPYVPPEESNSGANPNSQNKTAALRQEIDDTVGIMRDNINKVAERGERLTSIEDKADNLAISAQGFKRGANRVRAQMWWKDLKMR"
quantity_measured = "binding result"
val = "binds"


Values were extracted from paper PMC3734085.
